# subject_of_test: UniProt:P28482
# Sequence (P28482 whole entry): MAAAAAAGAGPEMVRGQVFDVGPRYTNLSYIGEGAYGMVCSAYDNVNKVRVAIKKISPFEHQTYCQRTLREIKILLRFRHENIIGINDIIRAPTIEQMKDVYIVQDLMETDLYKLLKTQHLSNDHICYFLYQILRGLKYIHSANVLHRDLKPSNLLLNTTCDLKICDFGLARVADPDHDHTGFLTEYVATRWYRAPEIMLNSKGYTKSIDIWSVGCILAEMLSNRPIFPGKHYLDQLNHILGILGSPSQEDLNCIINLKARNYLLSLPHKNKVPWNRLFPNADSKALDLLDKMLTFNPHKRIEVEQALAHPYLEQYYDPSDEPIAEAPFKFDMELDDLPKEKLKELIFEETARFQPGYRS
# assay_name: Active Human ERK2 (hERK2) Activity Assay (IMAP-FP)
# Format: biochemical
# particulars: phosphorylated active hERK2, 30 μM ATP; average; read-out: ERK 2 Human average IC50
pIC50: −log10 of the molar value.
# pIC50 annotations

molecule: O=C(NCC1CCC1)Nc1cc2[nH]nc(-c3ccnc(F)c3)c2cn1 [Example 591]
pIC50: 8.81

molecule: O=C(Nc1cc2[nH]nc(C3CC3)c2cn1)NC1CCCOc2ccccc21 (centres unmarked) [Example 153]
pIC50: 8.64

molecule: Cc1cc(-c2n[nH]c3cc(NC(=O)NCc4cccc(S(C)(=O)=O)c4)ncc23)ccn1 [Example 619]
pIC50: 9.80

molecule: Cc1cc(-c2n[nH]c3cc(NC(=O)NCC4CC(C)(C)OC(C)(C)C4)ncc23)ccn1 [Example 370]
pIC50: 8.84

molecule: Cc1cc(-c2n[nH]c3cc(NC(=O)N[C@H](C)c4cc(Cl)ccn4)ncc23)ccn1 [Example 229]
pIC50: 8.98

molecule: C[C@@H](NC(=O)Nc1cc2[nH]nc(-c3cn[nH]c3)c2cn1)c1ccc(F)c(Cl)c1 [Example 74]
pIC50: 9.22

molecule: C[C@@H](NC(=O)Nc1cc2[nH]nc(-c3ccc(C#N)cc3)c2cn1)c1cccc(Cl)c1 [Example 84]
pIC50: 8.21

molecule: Cc1cc(-c2n[nH]c3cc(NC(=O)NCc4cccc(-c5ncc[nH]5)c4)ncc23)ccn1 [Example 372]
pIC50: 8.88
